System: ATP;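 note: ATP exposure 15 min at 22 °C before imaging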
protocol description: switch fluorescence ratio, 500 uM ATP over buffer (Cy3 cluster intensity, sum of 5 cycles each) (fold (ratio)); higher = stronger signal-on switching upon ATP binding; sequences stand for … in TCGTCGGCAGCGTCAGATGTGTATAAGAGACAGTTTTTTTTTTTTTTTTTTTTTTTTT…TC
measurement context: aptamer strand: ATP DNA aptamer (quencher-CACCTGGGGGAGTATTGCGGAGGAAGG + anchor), 100 nM annealed; ATP concentration: 500 uM
Label rule, in plain words: switch fluorescence ratio of 1 and up is Y, under 1 is N.

INSERT INTO results (seq, class) VALUES
  ('TTTTTCGGTG', 'Y');

Query: Is it the case that CTCAGCCCGT has switch fluorescence ratio reaching or exceeding 1?
Result: Y

Query: Similarly, TCGAATAGAT ?
Result: N

Query: Similarly, TCCCTGTTGC ?
Result: Y

Query: Similarly, TTCCGTCTTC ?
Result: Y

Query: Similarly, TTTCGGTAAA ?
Result: Y

Query: Similarly, ATCTAATAGG ?
Result: N

Query: Similarly, TCGGGTGGGA ?
Result: Y

Query: Similarly, TCAGGGGTAT ?
Result: Y

Query: Similarly, CACGCAGGGT ?
Result: Y

Query: Similarly, AGTTATCCGG ?
Result: N

Query: Similarly, GAGTGGGATG ?
Result: N

Query: Similarly, AAGTTGTGGG ?
Result: N

Query: Similarly, TATTGACGCC ?
Result: Y

Query: Similarly, CTCTGGGGTC ?
Result: Y

Query: Similarly, GGGAAAGGGC ?
Result: N

Query: Similarly, GGGGTAGGCG ?
Result: N

Query: Similarly, ATGGTGCCCC ?
Result: Y

Query: Similarly, CAAGTATATT ?
Result: N

Query: Similarly, AATGCACAGA ?
Result: Y

Query: Similarly, CAATGGAAGG ?
Result: Y

====

Form field: switch fluorescence ratio (one value per entry).
Tested on: ATP;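 note: ATP exposure 15 min at 22 °C before imaging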
protocol description: switch fluorescence ratio, 500 uM ATP over buffer (Cy3 cluster intensity, sum of 5 cycles each) (fold (ratio)); higher = stronger signal-on switching upon ATP binding; sequences stand for … in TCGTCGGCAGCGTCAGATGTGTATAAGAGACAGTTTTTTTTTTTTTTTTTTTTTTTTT…TC
measurement context: aptamer strand: ATP DNA aptamer (quencher-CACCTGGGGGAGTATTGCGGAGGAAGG + anchor), 100 nM annealed; ATP concentration: 500 uM

INSERT INTO assay_data (seq, tested_system, measured_parameter, test_value) VALUES
  ('TGGTTTATAT', 'ATP', 'switch fluorescence ratio', 1),
  ('GCAGAGTGGA', 'ATP', 'switch fluorescence ratio', 0.998);

Query: Query switch fluorescence ratio on ATP for GTAGTTTTGA
Result: 0.981

Query: Similarly, AAAATCTGCG ?
Result: 1.03

Query: Similarly, CATAGGAAGG ?
Result: 0.987

Query: Similarly, GTTGGGCCGG ?
Result: 0.987

Query: Similarly, ACGGGCTTCT ?
Result: 1

Query: Similarly, GCGCTTGCTC ?
Result: 1.13

====

System: ATP;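 note: ATP exposure 15 min at 22 °C before imaging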
protocol description: switch fluorescence ratio, 500 uM ATP over buffer (Cy3 cluster intensity, sum of 5 cycles each) (fold (ratio)); higher = stronger signal-on switching upon ATP binding; sequences stand for … in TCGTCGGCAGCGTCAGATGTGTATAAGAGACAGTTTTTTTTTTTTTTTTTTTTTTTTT…TC
measurement context: aptamer strand: ATP DNA aptamer (quencher-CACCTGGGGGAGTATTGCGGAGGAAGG + anchor), 100 nM annealed; ATP concentration: 500 uM
measured parameter: switch fluorescence ratio
Answer using only a numeral; do not append any unit.

INSERT INTO assay_data (seq, test_value) VALUES
  ('TTTATAGTAA', 0.99),
  ('TATTAGAAGC', 1.01),
  ('ATTGCGGGTT', 0.981),
  ('AAGGGGGCAG', 0.994),
  ('GCTGGTTGGG', 0.98),
  ('GTTAGTACTG', 0.96),
  ('AAAGTTGCGG', 1.02),
  ('TTATCAGCAC', 1.14),
  ('ATAATCTGTG', 0.986);

Shift focus to the following entry.
Query: Endpoint output: switch fluorescence ratio of TAGGGGAAGA . Value?
Result: 1

====

System: ATP;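 note: ATP exposure 15 min at 22 °C before imaging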
protocol description: switch fluorescence ratio, 500 uM ATP over buffer (Cy3 cluster intensity, sum of 5 cycles each) (fold (ratio)); higher = stronger signal-on switching upon ATP binding; sequences stand for … in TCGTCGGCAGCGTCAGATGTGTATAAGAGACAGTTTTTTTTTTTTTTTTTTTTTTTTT…TC
measurement context: aptamer strand: ATP DNA aptamer (quencher-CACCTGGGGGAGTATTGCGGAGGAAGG + anchor), 100 nM annealed; ATP concentration: 500 uM
measured parameter: switch fluorescence ratio
Answer using only a numeral; do not append any unit.

INSERT INTO results (seq, tested_system, test_value) VALUES
  ('TCCTTTGGTT', 'ATP', 0.987),
  ('CGGGCGCAGT', 'ATP', 1.02),
  ('TAAGTGACGG', 'ATP', 1.04),
  ('TGTGTACAGG', 'ATP', 0.978),
  ('TAAGAGTACA', 'ATP', 1.07);

Query: Endpoint output: switch fluorescence ratio of ATGGACAATA . Value?
Result: 1.07

Query: Similarly, CCGTATCCCT ?
Result: 1.03

Query: Similarly, ATTGTCTTGA ?
Result: 0.969

Query: Similarly, AAAATGTCGG ?
Result: 0.998

Query: Similarly, GCAGGCGTTG ?
Result: 0.995

====

System: ATP;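 note: ATP exposure 15 min at 22 °C before imaging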
protocol description: switch fluorescence ratio, 500 uM ATP over buffer (Cy3 cluster intensity, sum of 5 cycles each) (fold (ratio)); higher = stronger signal-on switching upon ATP binding; sequences stand for … in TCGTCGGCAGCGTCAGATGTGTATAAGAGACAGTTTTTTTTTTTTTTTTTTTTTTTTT…TC
measurement context: aptamer strand: ATP DNA aptamer (quencher-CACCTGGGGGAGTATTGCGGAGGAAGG + anchor), 100 nM annealed; ATP concentration: 500 uM
measured parameter: switch fluorescence ratio

# annotated cases, reported switch fluorescence ratio shown
INSERT INTO measurements (seq, tested_system, test_value) VALUES
  ('TATTATAATA', 'ATP', 0.98),
  ('CGGTAGTTGT', 'ATP', 0.981),
  ('TGGAAGGAGC', 'ATP', 1.07),
  ('AATTGCGTTG', 'ATP', 0.979),
  ('AGAAGAGTAA', 'ATP', 1.01);

Query: Query switch fluorescence ratio on ATP for GAGGGCACGC
Result: 0.968

====

System: ATP;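 note: ATP exposure 15 min at 22 °C before imaging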
protocol description: switch fluorescence ratio, 500 uM ATP over buffer (Cy3 cluster intensity, sum of 5 cycles each) (fold (ratio)); higher = stronger signal-on switching upon ATP binding; sequences stand for … in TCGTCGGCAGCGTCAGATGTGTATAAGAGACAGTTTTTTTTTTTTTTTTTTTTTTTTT…TC
measurement context: aptamer strand: ATP DNA aptamer (quencher-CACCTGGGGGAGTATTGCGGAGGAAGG + anchor), 100 nM annealed; ATP concentration: 500 uM
measured parameter: switch fluorescence ratio
Answer using only a numeral; do not append any unit.

# annotated cases, reported switch fluorescence ratio shown
INSERT INTO results (seq, measured_parameter, test_value) VALUES
  ('CGTGTGTTGA', 'switch fluorescence ratio', 1.01),
  ('ATCATGAGTC', 'switch fluorescence ratio', 0.972),
  ('TTAGGCCGGA', 'switch fluorescence ratio', 1.04);

Query: Endpoint output: switch fluorescence ratio of TTGGATGTCT . Value?
Result: 1.01

Query: Similarly, TCTGCGGGGA ?
Result: 1.14

====

Test system: ATP;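 note: ATP exposure 15 min at 22 °C before imaging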
protocol description: switch fluorescence ratio, 500 uM ATP over buffer (Cy3 cluster intensity, sum of 5 cycles each) (fold (ratio)); higher = stronger signal-on switching upon ATP binding; sequences stand for … in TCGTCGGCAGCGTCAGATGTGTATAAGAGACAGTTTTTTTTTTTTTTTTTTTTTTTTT…TC
measurement context: aptamer strand: ATP DNA aptamer (quencher-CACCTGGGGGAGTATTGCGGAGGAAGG + anchor), 100 nM annealed; ATP concentration: 500 uM
measured parameter: switch fluorescence ratio
Answer using only a numeral; do not append any unit.

INSERT INTO assay_data (seq, test_value) VALUES
  ('TTTGAGTGTG', 0.997),
  ('ATTGATTTGT', 0.975),
  ('GGGTTCTTTG', 1.03),
  ('CTGGGGTTTT', 0.991);

Query: Query switch fluorescence ratio on ATP for AAACGTCCT
Result: 1.07

Query: Similarly, GTTATTGGAG ?
Result: 0.999
